Sourced from paper PMC9966370

Molecular target: Abl (Homo sapiens, UniProt P00519)
Sequence (P00519 whole entry): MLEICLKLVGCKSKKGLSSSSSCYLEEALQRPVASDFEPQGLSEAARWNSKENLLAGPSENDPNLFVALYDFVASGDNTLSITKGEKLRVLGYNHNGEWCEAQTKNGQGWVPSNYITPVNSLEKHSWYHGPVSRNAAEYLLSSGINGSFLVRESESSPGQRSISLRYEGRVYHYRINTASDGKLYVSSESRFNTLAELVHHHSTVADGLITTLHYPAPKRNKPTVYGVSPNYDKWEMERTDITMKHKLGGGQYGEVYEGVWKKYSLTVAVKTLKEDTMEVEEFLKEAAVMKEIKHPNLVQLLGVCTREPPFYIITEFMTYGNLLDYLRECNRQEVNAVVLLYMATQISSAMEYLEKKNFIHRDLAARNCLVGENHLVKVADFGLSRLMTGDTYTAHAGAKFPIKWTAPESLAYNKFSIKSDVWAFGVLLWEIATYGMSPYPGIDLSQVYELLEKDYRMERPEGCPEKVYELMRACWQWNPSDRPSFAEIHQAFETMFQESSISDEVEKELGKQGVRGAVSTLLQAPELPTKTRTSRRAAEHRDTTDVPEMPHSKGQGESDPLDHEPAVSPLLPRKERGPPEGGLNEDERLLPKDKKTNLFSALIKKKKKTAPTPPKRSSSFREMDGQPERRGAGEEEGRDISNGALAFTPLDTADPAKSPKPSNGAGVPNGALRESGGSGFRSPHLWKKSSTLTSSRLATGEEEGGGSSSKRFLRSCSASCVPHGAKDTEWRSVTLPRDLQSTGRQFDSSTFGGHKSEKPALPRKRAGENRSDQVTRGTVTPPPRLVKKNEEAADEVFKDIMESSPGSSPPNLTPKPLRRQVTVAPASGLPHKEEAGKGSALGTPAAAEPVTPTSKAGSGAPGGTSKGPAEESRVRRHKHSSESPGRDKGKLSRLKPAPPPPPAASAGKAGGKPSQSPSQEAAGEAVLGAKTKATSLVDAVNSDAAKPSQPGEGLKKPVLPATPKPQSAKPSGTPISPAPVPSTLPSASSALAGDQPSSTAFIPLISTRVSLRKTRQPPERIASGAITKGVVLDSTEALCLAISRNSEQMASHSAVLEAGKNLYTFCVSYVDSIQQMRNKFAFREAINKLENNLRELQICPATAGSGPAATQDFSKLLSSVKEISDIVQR
Metric: pKi
Field pKi (float): negative decimal logarithm of the concentration in molar.

Inquiry: // query pKi value for entry Clc1ccc(C(Cl)Cn2ncc3c(NCCc4ccccc4)ncnc32)cc1 (stereo not shown)
Reply text: 6.51

###

Here the recorded pIC50 is given for each entry.
System: LN229 GBM cell line
Assay: antiproliferative activity, MTT assay, LN229
Assay type: cell-based
Settings: Homo sapiens, LN-229, 72 h treatment
Lab note: report pIC50 as minus log10 of the concentration in molar units, number only.

Solved cases (6 shown):
>>> obs_value("Fc1ccc(C(Cl)Cn2ncc3c(NCc4ccccc4)ncnc32)cc1 (stereo not drawn)")
5.16
>>> obs_value("Fc1ccc(CNc2ncnc3c2cnn3CC(Cl)c2ccc(Cl)cc2)cc1 (stereo not drawn)")
5.15
>>> obs_value("Fc1cccc(CNc2ncnc3c2cnn3CCc2ccccc2)c1")
4.23
>>> obs_value("CSc1nc(NCCc2ccccc2)c2cnn(CC(Cl)c3ccccc3)c2n1 (stereo not drawn)")
4.58
>>> obs_value("Clc1ccc(C(Cl)Cn2ncc3c(NCCc4ccccc4)ncnc32)cc1 (stereo not drawn)")
4.55
>>> obs_value("Fc1ccc(C(Cl)Cn2ncc3c(NCc4ccccc4F)ncnc32)cc1 (stereo not drawn)")
4.47

Inquiry: Bench note: what pIC50 did ClC(Cn1ncc2c(NCc3ccccc3)ncnc21)c1ccccc1 (stereo not drawn) show?
Reply text: 5.47

Inquiry: Here is the next compound: ClC(Cn1ncc2c(NCc3ccccc3)nc(SCCN3CCOCC3)nc21)c1ccccc1 (stereo not drawn)
Reply text: 4.24

Inquiry: Also Fc1ccccc1CNc1ncnc2c1cnn2CC(Cl)c1ccccc1 (stereo not drawn) ?
Reply text: 4.53

###

Tested on: fibroblasts FIBRO 2-93
Assay: cytotoxicity on nontumoral healthy cells, MTT assay, FIBRO 2-93
Format: cell-based, human
Settings: 72 h treatment, MTT
Metric: CC50 (µM)
Lab book: enter the figure in µM, no units written.

>>> obs_value("ClC(Cn1ncc2c(NCc3ccccc3)ncnc21)c1ccccc1 (centres unmarked)")
86.9

Inquiry: Test system fibroblasts FIBRO 2-93; read-out CC50; what value for Fc1ccc(C(Cl)Cn2ncc3c(NCc4ccccc4)ncnc32)cc1 (centres unmarked) ?
Reply text: 91.7

###

Reported melting point is given for each of the following molecules.

Some molecules with known melting point results, for comparison:
>>> obs_value("Fc1ccc(CNc2ncnc3c2cnn3CC(Cl)c2ccccc2)cc1 (stereo not shown) [Compound 4]")
"161 to 162 °C"
>>> obs_value("Fc1ccc(C(Cl)Cn2ncc3c(NCc4ccccc4)ncnc32)cc1 (stereo not shown) [Compound 5]")
"143 to 144 °C"
>>> obs_value("Fc1cccc(CNc2ncnc3c2cnn3CCc2ccccc2)c1 [Compound 11]")
"113 to 114 °C"

Inquiry: Report melting point for ClC(Cn1ncc2c(NC3CC3)ncnc21)c1ccccc1 (stereo not shown) [Compound 2] please.
Reply text: 194 to 195 °C

###

Test: cytotoxicity on nontumoral healthy cells, MTT assay, FIBRO 2-93
Format: cell-based, human
Conditions: human, FIBRO 2-93 healthy fibroblasts, 72 h treatment, MTT
Metric: CC50 at 72 h

Examples with answers:
>>> obs_value("ClC(Cn1ncc2c(NCc3ccccc3)ncnc21)c1ccccc1 (stereo not drawn)")
"~87 µM"
>>> obs_value("Fc1ccc(C(Cl)Cn2ncc3c(NCc4ccccc4)ncnc32)cc1 (stereo not drawn)")
"> 90 µM"

Inquiry: // returns reported CC50 at 72 h for input Fc1ccc(CNc2ncnc3c2cnn3CC(Cl)c2ccc(Cl)cc2)cc1 (stereo not drawn)
Reply text: 28.6 µM

###

Listed compounds paired with reported IC50
System: U-87 GBM cell line
Experiment: antiproliferative activity, MTT assay, U-87
Assay type: cell-based
Settings: Homo sapiens, 72 h treatment
I only need the number, in µM, no unit after it.

Here are 3 compounds together with their reported answers.
>>> obs_value("Clc1ccc(C(Cl)Cn2ncc3c(NCCc4ccccc4)ncnc32)cc1 (stereo not shown) [Compound 10]")
33.9
>>> obs_value("Fc1ccc(C(Cl)Cn2ncc3c(NCc4ccccc4)ncnc32)cc1 (stereo not shown) [Compound 5]")
6.8
>>> obs_value("Fc1ccc(CNc2ncnc3c2cnn3CC(Cl)c2ccc(Cl)cc2)cc1 (stereo not shown) [Compound 7]")
22.7

Inquiry: Fill in: IC50 of Fc1ccc(C(Cl)Cn2ncc3c(NCc4ccccc4F)ncnc32)cc1 (stereo not shown) [Compound 6] is ___
Reply text: 32.4

Inquiry: Moving on to CSc1nc(NCCc2ccccc2)c2cnn(CC(Cl)c3ccccc3)c2n1 (stereo not shown) [Compound 8]
Reply text: 37.9

Inquiry: Can you handle Fc1ccccc1CNc1ncnc2c1cnn2CC(Cl)c1ccccc1 (stereo not shown) [Compound 3] next?
Reply text: 40.2

Inquiry: Check Fc1ccc(CNc2ncnc3c2cnn3CC(Cl)c2ccccc2)cc1 (stereo not shown) [Compound 4] too.
Reply text: 29.8

Inquiry: Would you kindly repeat that for Fc1cccc(CNc2ncnc3c2cnn3CCc2ccccc2)c1 [Compound 11] ?
Reply text: 56.9

###

Some compounds, each annotated with its measured Metabolic Stability.
Assay: metabolic stability assay in human liver microsomes
Format: in vitro ADME
Conditions: HLM 0.2 mg/mL, NADPH, 1 h, 37 °C

>>> obs_value("Fc1ccccc1CNc1ncnc2c1cnn2CC(Cl)c1ccccc1 (stereo not shown)")
"80.4%"

Inquiry: Which Metabolic Stability reading was recorded for the compound Fc1ccc(C(Cl)Cn2ncc3c(NCc4ccccc4)ncnc32)cc1 (stereo not shown) ?
Reply text: 84.2%

Inquiry: Next compound: Fc1ccc(C(Cl)Cn2ncc3c(NCc4ccccc4F)ncnc32)cc1 (stereo not shown)
Reply text: 69.9%

Inquiry: Try this compound next: Clc1ccc(C(Cl)Cn2ncc3c(NCCc4ccccc4)ncnc32)cc1 (stereo not shown)
Reply text: 85.9%

###

Experiment: PAMPA, BBB permeability
Format: in vitro ADME
Settings: pH 7.4, PAMPA, RT
Recorded measurements of Papp at 5 h, 500 µM, one per entry

The following molecules have reported results that may help.
>>> obs_value("ClC(Cn1ncc2c(NC3CC3)ncnc21)c1ccccc1 (stereo not shown)")
"4.96 ×10⁻⁶ cm/s"
>>> obs_value("ClC(Cn1ncc2c(NCc3ccccc3)nc(SCCN3CCOCC3)nc21)c1ccccc1 (stereo not shown)")
"2.6 ×10⁻⁶ cm/s"
>>> obs_value("Fc1ccc(CNc2ncnc3c2cnn3CC(Cl)c2ccccc2)cc1 (stereo not shown)")
"≥ 10 ×10⁻⁶ cm/s"
>>> obs_value("CSc1nc(NCCc2ccccc2)c2cnn(CC(Cl)c3ccccc3)c2n1 (stereo not shown)")
"5.96 ×10⁻⁶ cm/s"
>>> obs_value("Fc1ccc(C(Cl)Cn2ncc3c(NCc4ccccc4F)ncnc32)cc1 (stereo not shown)")
"≥ 10 ×10⁻⁶ cm/s"
>>> obs_value("Clc1ccc(C(Cl)Cn2ncc3c(NCCc4ccccc4)ncnc32)cc1 (stereo not shown)")
"≥ 10 ×10⁻⁶ cm/s"
>>> obs_value("Fc1ccc(C(Cl)Cn2ncc3c(NCc4ccccc4)ncnc32)cc1 (stereo not shown)")
"≥ 10 ×10⁻⁶ cm/s"
>>> obs_value("Fc1cccc(CNc2ncnc3c2cnn3CCc2ccccc2)c1")
"≥ 10 ×10⁻⁶ cm/s"
>>> obs_value("Fc1ccc(CNc2ncnc3c2cnn3CC(Cl)c2ccc(Cl)cc2)cc1 (stereo not shown)")
"≥ 10 ×10⁻⁶ cm/s"

Kindly review the next molecule as well.
Inquiry: Which Papp at 5 h, 500 µM value is on record for Fc1ccccc1CNc1ncnc2c1cnn2CC(Cl)c1ccccc1 (stereo not shown) ?
Reply text: ≥ 10 ×10⁻⁶ cm/s

###

Assay: PAMPA, GI permeability
Assay type: in vitro ADME
Conditions: 5 h, RT, pH 7.4
Metric: GI membrane retention (MR%)
Value expressed in %; do not type the unit.

>>> obs_value("Fc1ccccc1CNc1ncnc2c1cnn2CC(Cl)c1ccccc1 (centres unmarked) [Compound 3]")
7.3
>>> obs_value("CSc1nc(NCCc2ccccc2)c2cnn(CC(Cl)c3ccccc3)c2n1 (centres unmarked) [Compound 8]")
42.7
>>> obs_value("Clc1ccc(C(Cl)Cn2ncc3c(NCCc4ccccc4)ncnc32)cc1 (centres unmarked) [Compound 10]")
17.2

Inquiry: Reported GI membrane retention (MR%), compound Fc1cccc(CNc2ncnc3c2cnn3CCc2ccccc2)c1 [Compound 11] : ____
Reply text: 6.7

###

Assay: PAMPA, GI permeability
Assay type: in vitro ADME
Settings: pH 7.4, PAMPA, RT
# Papp at 5 h, 500 µM listing for each entry below

Inquiry: I would be grateful if you could share the reported Papp at 5 h, 500 µM for Fc1ccc(C(Cl)Cn2ncc3c(NCc4ccccc4F)ncnc32)cc1 (centres unmarked) [Compound 6] .
Reply text: ≥ 10 ×10⁻⁶ cm/s

Inquiry: Same thing, different compound: Fc1ccccc1CNc1ncnc2c1cnn2CC(Cl)c1ccccc1 (centres unmarked) [Compound 3]
Reply text: ≥ 10 ×10⁻⁶ cm/s

Inquiry: Query Fc1ccc(C(Cl)Cn2ncc3c(NCc4ccccc4)ncnc32)cc1 (centres unmarked) [Compound 5] next
Reply text: ≥ 10 ×10⁻⁶ cm/s

Inquiry: # repeat for CSc1nc(NCCc2ccccc2)c2cnn(CC(Cl)c3ccccc3)c2n1 (centres unmarked) [Compound 8]
Reply text: 3.2 ×10⁻⁶ cm/s

Inquiry: Also Fc1cccc(CNc2ncnc3c2cnn3CCc2ccccc2)c1 [Compound 11] ?
Reply text: ≥ 10 ×10⁻⁶ cm/s

Inquiry: Please give the result for ClC(Cn1ncc2c(NC3CC3)ncnc21)c1ccccc1 (centres unmarked) [Compound 2] too.
Reply text: 6.46 ×10⁻⁶ cm/s

Inquiry: Now the same for Clc1ccc(C(Cl)Cn2ncc3c(NCCc4ccccc4)ncnc32)cc1 (centres unmarked) [Compound 10]
Reply text: ≥ 10 ×10⁻⁶ cm/s

Inquiry: Also Fc1ccc(CNc2ncnc3c2cnn3CC(Cl)c2ccccc2)cc1 (centres unmarked) [Compound 4] ?
Reply text: ≥ 10 ×10⁻⁶ cm/s
